FYI, the data here is from ChEMBL document CHEMBL2321845.

Assay: Cytotoxicity against human MDA-MB-435/LCC6MDR1 cells assessed as growth inhibition after 48 hrs by SRB assay
Format: functional, cell-based, MDA-MB-435/LCC6 MDR1
Conditions: Homo sapiens, MDA-MB-435/LCC6 MDR1, 48 h
readout-kind: pIC50
Give bare numbers, as −log10 of the molar value.

CCCc1[nH]c(Cc2cc(OC)c(OC)c(OC)c2)nc1-c1ccccc1 :: 4.80
COc1cc(C(=O)c2nc(-c3ccccc3)cn2C(C)C)cc(OC)c1OC :: 7.36
CCc1ccc(-c2nc(C(=O)c3cc(OC)c(OC)c(OC)c3)c[nH]2)cc1 :: 7.57
COc1ccc(-c2c[nH]c(C(=O)c3cc(OC)c(OC)c(OC)c3)n2)cc1 :: 7.23
COc1cc(C(=O)c2nc(-c3ccccc3)cn2-c2cccs2)cc(OC)c1OC :: 7.57

Dear colleague, could you send me pIC50 for each of the items below? Thanks.
1. COc1cc(C(=O)c2nc(-c3ccc(N(C)C)cc3)c[nH]2)cc(OC)c1OC
2. COc1cc(C(=O)c2nc(-c3ccccc3)cn2-c2ccccn2)cc(OC)c1OC
3. COc1cc(C(=O)c2nc(-c3ccc(C(F)(F)F)cc3)c[nH]2)cc(OC)c1OC

# output
[6.79, 7.82, 6.76]

# input Please look up its pIC50: COc1cc(-c2c[nH]c(C(=O)c3ccc(N(C)C)cc3)n2)cc(OC)c1OC
# output 4.39

====

Test system: PC-3
Experiment: Cytotoxicity against human PC3 cells assessed as growth inhibition after 96 hrs by SRB assay
Format: functional, cell-based
Conditions: PC-3, 96 h
Assignment: determine reported log10 IC50 for the given molecules.
Values below are the log10 of the recorded IC50, with nM as the unit.

These solved cases illustrate the format of a correct answer.
COc1cc(C(=O)c2nc(-c3ccc(O)cc3)c[nH]2)cc(OC)c1OC :: 2.19
COc1ccc(C(=O)c2nc(-c3cc(OC)c(OC)c(OC)c3)c[nH]2)cc1 :: 4.02
COc1cc(C(=O)c2nc(-c3ccccc3)c(C)[nH]2)cc(OC)c1OC :: 3.21

Would you be so kind as to report log10 IC50 for each listed record?
1. CCCn1cc(-c2ccccc2)nc1C(=O)c1cc(OC)c(OC)c(OC)c1
2. COc1cc(C(=O)c2nc(-c3ccc(Br)cc3)c[nH]2)cc(OC)c1OC
3. CCn1cc(-c2ccccc2)nc1C(=O)c1cc(OC)c(OC)c(OC)c1
4. COc1cc(-c2c[nH]c(C(=O)c3ccccc3)n2)cc(OC)c1OC
5. COc1cc(C(=O)c2nc(-c3ccc(F)cc3)c[nH]2)cc(OC)c1OC

# output
1. 1.41
2. 1.52
3. 1.40
4. 2.80
5. 2.29

Provide log10 IC50 for all items below, preserving their order.
1. CCc1[nH]c(C(=O)c2cc(OC)c(OC)c(OC)c2)nc1-c1ccccc1
2. O=C(c1ccc(Br)cc1)c1nc(-c2ccc(Br)cc2)c[nH]1

# output
1. 3.56
2. 4.28

====

Could you please report measured log10 of IC50 for the items listed next?
Tested on: PC-3
Assay: Cytotoxicity against human PC3 cells assessed as growth inhibition after 96 hrs by SRB assay
Type: functional, cell-based
Details: PC-3, 96 h
Note: values are log10 of IC50 expressed in nM.

Reference set, count: 3
COc1ccc(-c2c[nH]c(C(=O)c3cc(OC)c(OC)c(OC)c3)n2)cc1 :: 1.79
CCCc1[nH]c(C(=O)c2cc(OC)c(OC)c(OC)c2)nc1-c1ccccc1 :: 4.09
COc1cc(-c2c[nH]c(C(=O)c3ccc(Br)cc3)n2)cc(OC)c1OC :: 2.57

Give one value of log10 of IC50 per listed compound.
1. COc1cc(C(=O)c2c[nH]c(-c3ccc(C(C)(C)C)cc3)n2)cc(OC)c1OC
2. COc1cc(C(=O)c2nc(-c3ccccc3)cn2C(C)C)cc(OC)c1OC
3. COc1cc(C(=O)c2c[nH]c(-c3ccc(C(C)C)cc3)n2)cc(OC)c1OC

# output
1. 2.64
2. 1.72
3. 2.13

Hey, quick one: what's log10 of IC50 for each of these?
1. COc1cc(C(=O)c2nc(-c3ccccc3)cn2C)cc(OC)c1OC
2. COc1cc(C(=O)c2nc(-c3ccc(Cl)cc3)c[nH]2)cc(OC)c1OC
3. COc1cc(C(=O)c2nc(-c3ccccc3)c[nH]2)cc(OC)c1OC
4. COc1cc(C(=O)c2nc(-c3ccccc3)cn2C2CCCC2)cc(OC)c1OC

# output
1. 1.20
2. 1.81
3. 1.15
4. 1.75

Below is a list of compounds. For each, state its recorded log10 of IC50.
1. COc1ccc(C(=O)c2nc(-c3ccc(OC)cc3)c[nH]2)cc1
2. COc1cc(C(=O)c2nc(-c3ccc(C(F)(F)F)cc3)c[nH]2)cc(OC)c1OC
3. Cc1ccc(C(=O)c2nc(-c3ccc(C)cc3)c[nH]2)cc1

# output
1: 4.37; 2: 1.97; 3: 3.71
